# protocol-summary: Pharmacokinetic studies in human, Compound I in plasma by LC/MS/MS
# Format: in vivo
# conditions-used: human, plasma, iv, 250 mg/m2, Group 5, 250 mg/m^2 IV, Day 8, mean, n = 3
measured-endpoint: Vd (L)
Give your result in L as a bare value.

[ask] Recorded Vd of `Cc1cnc(CNC(=O)c2c(=O)c3ccc(N4CCCN(C)CC4)nc3n3c2sc2ccccc23)cn1` , please.
[reply] 2160

----------
# protocol-summary: Pharmacokinetic studies in human, Compound I in plasma by LC/MS/MS
# Assay type: in vivo
# conditions-used: human, plasma, iv, 200 mg/m2, Group 4, 200 mg/m^2 IV, Day 1, mean, n = 4; read-out: AUC∞
# Experimental: […] Levels of Compound I in patient's plasma were analyzed by liquid chromatography tandem mass spectrometry (LC/MS/MS) assay. […] The concentrations of Compound I in human plasma samples collected from subjects of as discussed above. Compound I concentrations in plasma samples were measured based on 9 levels of calibration standards from 5.00 to 5000 ng/mL, and 3 levels of QC at 15.0 ng/mL (low), 2500 ng/mL (mid), and 4000 ng/mL (high). […]
measured-endpoint: AUC(0-inf) (ng·h/mL)
Give your result in ng·h/mL as a bare value.

[ask] Recorded AUC(0-inf) of Cc1cnc(CNC(=O)c2c(=O)c3ccc(N4CCCN(C)CC4)nc3n3c2sc2ccccc23)cn1 [Compound I] , please.
[reply] 15100
